Tested on: OVCAR-3 ovarian
test.details: NCI-60 one-dose screen, 48 h (100 = growth as untreated, 0 = no growth, -100 = all killed)
measurement.parameters: 10 µM unless noted
This is part of a sample that, as a whole, favours compounds with a hit. Of some 83,000 tested, about 20% had one in any assay.
So basically, the class depends on measured growth, and the ranges are b0 = under 40%, b1 = from 40% up to 90%, b2 = 90% and over

{"compound": "CC(C)CCNC(=O)Cn1cccc(NC(=O)OCc2ccccc2)c1=O", "group": "b2"}
{"compound": "N#Cc1c(-c2ccc(Cl)cc2)nc(SCC(=O)NC2=NN=C(c3ccccc3)CS2)[nH]c1=O", "group": "b1"}
{"compound": "CCOc1ccc(NC(=O)CSc2oc(-c3ccccc3)nc2S(=O)(=O)c2ccc(F)cc2)cc1", "group": "b1"}
{"compound": "COc1cc2c(c(OC)c1OC)-c1ccc(OC)c(=O)cc1[C@@H](NC(=O)CCl)CC2", "group": "b0"}
{"compound": "CCN1CC(=O)N(/N=C2\\C(=O)Nc3ccccc32)C1=S", "group": "b2"}
{"compound": "Cc1cc(N)c2cc(NC(=O)/C=C\\c3ccccc3Cl)ccc2n1", "group": "b0"}
{"compound": "Cc1nc(-c2ccccc2)cc2c(O)c(C(=O)NN)[nH]c(=O)c12", "group": "b2"}
{"compound": "Oc1c(Cl)cc(Cl)cc1/C=N/Nc1nnc(N/N=C/c2cc(Cl)cc(Cl)c2O)c2ccccc12", "group": "b0"}
{"compound": "Cc1nnc(-n2c(O)cc(=O)n(-c3ccccc3)c2=S)nc1/C=C/c1ccc(N(C)C)cc1", "group": "b1"}
{"compound": "O=C(NCc1ccccc1)Nc1ccccc1CNc1nc(Nc2ccc(OCCN3CCCC3)cc2)ncc1Cl", "group": "b2"}
{"compound": "COC(=O)c1n[nH]c2ccc3nc(-c4cn[nH]c4C(F)(F)F)c4c(c3c12)CCCC4", "group": "b1"}
{"compound": "CCOC(=O)CNP(=O)(OC[C@@H](Cc1ccccc1)NC(=O)c1cc2ccccc2s1)Oc1ccccc1 (some centres undefined)", "group": "b1"}

* * *

Tested on: CAKI-1 renal
test.details: NCI-60 one-dose screen, 48 h
measurement.parameters: 10 µM unless noted
Description: Growth inhibition of the CAKI-1 human tumor cell line is measured as a screen for anti-cancer activity. Cells are grown in 96 well plates and exposed to the test compound for 48 hours. Compounds are tested at a single concentration, which is 10^-5 M for most compounds. The reported endpoint is percent growth (GI% or GIPRCNT), where numbers from 0 - 100% represent growth inhibition, and numbers from -100% - 0 represent cell death. For example, a value of 40 represents 60% growth inhibition. […]
This is part of a sample that, as a whole, favours compounds with a hit. Of some 83,000 tested, about 20% had one in any assay. Activity calls are given as the source filed them. How the source made its calls: active means growth percent below 10; inactive means the rest.
Outcome codes: active, inactive

{"molecule": "Nc1nc(=S)c2ncn(C3OC(COP(=O)(O)O)C(O)C3O)c2[nH]1 (stereo not drawn)", "group": "inactive"}
{"molecule": "C/C(Nc1ccc(Cl)c(Cl)c1)=C1\\CCOC1=O", "group": "inactive"}
{"molecule": "O=C(CSc1nc(-c2ccccc2)[nH]c1S(=O)(=O)c1ccccc1)NC1CC1", "group": "inactive"}
{"molecule": "CCOC(=O)c1cc2c(=O)oc3ccccc3c2oc1=O", "group": "inactive"}
{"molecule": "C[C@]12CC[C@@H]3c4ccc(O)c([N+](=O)[O-])c4CC[C@H]3[C@@H]1CCC2=O", "group": "inactive"}
{"molecule": "O=C1/C(=C\\c2cn(-c3ccccc3)nc2-c2ccc(-c3cccs3)cc2)CCc2ccccc21", "group": "inactive"}
{"molecule": "O=C(NCCCCNC(=O)OCc1ccc2c(Cl)cc(Cl)c(O)c2n1)OCc1ccc2c(Cl)cc(Cl)c(O)c2n1", "group": "inactive"}
{"molecule": "Cc1cnc(C(=O)NNc2nc3sc4c(c3c(=O)n2C)C(C)CCC4)cn1 (stereo not drawn)", "group": "active"}
{"molecule": "N#Cc1c(-c2ccccc2)cc(-c2ccccc2)n(CCCCCC(=O)Nc2ccccc2N)c1=O", "group": "inactive"}
{"molecule": "N#C/C(=C\\c1ccc(Br)cc1)n1nnc2ccc(F)cc21", "group": "active"}
{"molecule": "COc1cc(/C=C/C(=O)c2cccc(Nc3nc(Nc4ccccc4)nc(Nc4ccccc4)n3)c2)cc(OC)c1OC", "group": "inactive"}
{"molecule": "CC1(c2ccccc2O)NN=C(/N=C/c2cccc([N+](=O)[O-])c2)N1C(Cc1c[nH]c2ccccc12)C(=O)O (stereo not drawn)", "group": "inactive"}
{"molecule": "c1ccc(C2=NN[C@H](c3cn(-c4ccccc4)nc3-c3ccccc3)C2)cc1", "group": "active"}

* * *

Tested on: UO-31 renal
test.details: NCI-60 one-dose screen, 48 h (100 = growth as untreated, 0 = no growth, -100 = all killed)
measurement.parameters: 10 µM unless noted
Compounds without any hit were thinned out: in the full panel of roughly 83,000, 20% have a hit.
For each record, check the reported growth: if it is below 50% write 1 (yes), else write 0 (no).

{"smi": "C/C(Nc1ccc(Cl)c(Cl)c1)=C1\\CCOC1=O", "group": "0 (no)"}
{"smi": "Cc1ccc(-c2nc(/C=C3/C(=O)Nc4ccccc43)c3ccccn23)cc1", "group": "0 (no)"}
{"smi": "N#Cc1c(NC(=O)c2ccccc2)sc2c1CCC(=O)C2", "group": "1 (yes)"}
{"smi": "COc1ccccc1NC(=O)Cn1cc(CN2CCN(c3ccnc4cc(Cl)ccc34)CC2)nn1", "group": "0 (no)"}
{"smi": "O=C1Nc2ccc(I)cc2C1=O", "group": "0 (no)"}
{"smi": "COC(=O)/C=C1/SC(=Nc2ccc(C)cc2)N(CCc2c[nH]c3ccc(O)cc23)C1=O", "group": "1 (yes)"}
{"smi": "COC(=O)c1c2c(c(C)[n+]([O-])c1C)C(=O)C(NCc1ccc(Cl)cc1)=CC2=O", "group": "0 (no)"}
{"smi": "O=C1/C(=C/c2ccc(F)cc2)COc2ccc(O)cc21", "group": "0 (no)"}
{"smi": "CCN(CC)CCSc1nc(-c2ccccc2)c(C#N)c(=O)[nH]1", "group": "0 (no)"}

* * *

The entries below are paired with their reported growth.
Tested on: U251 CNS
test.details: NCI-60 one-dose screen, 48 h (100 = growth as untreated, 0 = no growth, -100 = all killed)
measurement.parameters: 10 µM unless noted
The panel holds about 83,000 compounds, 20% with a hit somewhere; the sample as a whole holds those more often.

{"smi": "COC(=O)c1n[nH]c2ccc3nc(-c4cn[nH]c4C(F)(F)F)c4c(c3c12)CCCC4", "unit.abbreviation": "%", "growth": 41.7}
{"smi": "CC(=O)c1cc(O)c2ccccc2c1O", "unit.abbreviation": "%", "growth": 98.2}
{"smi": "CCN(CC)c1ccc(/C=C/C(=O)c2ccc(Nc3nc(Nc4ccccc4)nc(Nc4ccccc4)n3)cc2)cc1", "unit.abbreviation": "%", "growth": 43.4}

* * *

System: U251 CNS
test.details: NCI-60 one-dose screen, 48 h
measurement.parameters: 10 µM unless noted
Compounds without any hit were thinned out: in the full panel of roughly 83,000, 20% have a hit. The source made the active and inactive calls. The calls were made as follows: active = growth percent below 10; inactive = the rest.
Outcome codes: active, inactive

{"smi": "CCN(CC)C(=S)SC(SC(=S)N(CC)CC)C(=O)c1nnn(-c2ccc([N+](=O)[O-])cc2)c1C", "measurement.target": "U251 CNS", "group": "inactive"}
{"smi": "Cc1nc(N2CCOCC2)sc1S(N)(=O)=O", "measurement.target": "U251 CNS", "group": "inactive"}
{"smi": "O=C(Nc1nn(-c2ccc(Cl)cc2Cl)nc1-c1ccccc1)c1ccccc1", "measurement.target": "U251 CNS", "group": "inactive"}
{"smi": "Brc1ccc2[nH]cc(-c3nonc3-c3c[nH]c4ccccc34)c2c1", "measurement.target": "U251 CNS", "group": "inactive"}
{"smi": "COC(=O)CCC(=O)C(=O)OC", "measurement.target": "U251 CNS", "group": "active"}
{"smi": "O=C(Nc1ccc(-c2nc(N3CCOCC3)c3cccn3n2)cc1)Nc1cccnc1", "measurement.target": "U251 CNS", "group": "active"}
{"smi": "C=C(C)[C@@H]1CC[C@]2(C)[C@H](CC=C3[C@@H]4[C@H](C)[C@@H](C)CC[C@]4(CO)CC[C@]32C)[C@@]1(C)CCCN", "measurement.target": "U251 CNS", "group": "active"}
{"smi": "COc1ccc(C(=O)Nc2ncc(Cc3ccc(F)cc3)s2)cc1", "measurement.target": "U251 CNS", "group": "inactive"}
{"smi": "O=C(CN1C(=O)CCC1=O)Nc1ncc(Cc2ccc(F)cc2)s1", "measurement.target": "U251 CNS", "group": "inactive"}
